target: 5HT1B (Homo sapiens)
Sequence (P28222 whole entry, species assumed): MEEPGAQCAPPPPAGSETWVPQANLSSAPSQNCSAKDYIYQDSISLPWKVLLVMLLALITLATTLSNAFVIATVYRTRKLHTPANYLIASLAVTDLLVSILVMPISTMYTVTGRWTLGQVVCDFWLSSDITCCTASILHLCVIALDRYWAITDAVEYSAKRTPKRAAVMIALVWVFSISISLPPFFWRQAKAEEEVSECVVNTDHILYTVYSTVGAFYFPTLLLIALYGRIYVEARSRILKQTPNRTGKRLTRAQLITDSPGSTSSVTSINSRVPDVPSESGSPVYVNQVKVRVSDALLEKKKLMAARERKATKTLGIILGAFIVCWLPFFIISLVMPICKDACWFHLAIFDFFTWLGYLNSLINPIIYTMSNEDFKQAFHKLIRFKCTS
Property Measured: Ki

input: Entry CN1CC2c3ccccc3Oc3ccc(Cl)cc3C2C1 (stereo not drawn) [ORG5222] : reported Ki = ?
output: 0.001 to 0.01 µM

input: If you can, please state the reported Ki value of O=C1NCCN1CCN1CCC(c2cn(-c3ccc(F)cc3)c3ccc(Cl)cc23)CC1 [Sertindole] .
output: 0.01 to 0.1 µM

input: Bench note: what Ki did CN(C)CCOC1=Cc2ccccc2Sc2ccc(Cl)cc21 [Zotepine] show?
output: 0.01 to 0.1 µM

input: What measured Ki goes with O=C1Cc2cc(CCN3CCN(c4nsc5ccccc45)CC3)c(Cl)cc2N1 [Ziprasidone] ?
output: < 0.001 µM

input: Request the reported Ki associated with NC(=O)C1(N2CCCCC2)CCN(CCCC(=O)c2ccc(F)cc2)CC1 [Pipamperone]
output: 0.1 to 1 µM

input: Request the reported Ki associated with O=C1NCN(c2ccccc2)C12CCN(CCCC(c1ccc(F)cc1)c1ccc(F)cc1)CC2 [Fluspirilene]
output: > 1 µM
